Numbers sourced from the supplement of paper PMC10126150.

system: ATP; test: switch fluorescence ratio, 500 uM ATP over buffer (Cy3 cluster intensity, sum of 5 cycles each) (fold (ratio)); higher = stronger signal-on switching upon ATP binding; sequences stand for … in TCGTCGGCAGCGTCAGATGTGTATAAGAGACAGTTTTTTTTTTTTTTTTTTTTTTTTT…TC; conditions: aptamer strand: ATP DNA aptamer (quencher-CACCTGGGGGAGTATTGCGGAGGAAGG + anchor), 100 nM annealed; ATP concentration: 500 uM;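 note: ATP exposure 15 min at 22 °C before imaging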
assay_endpoint: switch fluorescence ratio
// no unit, no text: just the number

These recorded examples may help you get a feel for the data.
[[record]]
input_sequence = "GATAAATGTA"
assay_endpoint = "switch fluorescence ratio"
observed = 0.981

[[record]]
input_sequence = "ATGTATTTTT"
assay_endpoint = "switch fluorescence ratio"
observed = 1

[[record]]
input_sequence = "AAATCGTAGT"
assay_endpoint = "switch fluorescence ratio"
observed = 0.988


Item `GCGGGACCCG` : provide switch fluorescence ratio
1.01

Supply recorded switch fluorescence ratio for `GAATGGCACG` here.
1

###

tested on: ATP; assay: switch fluorescence ratio, 500 uM ATP over buffer (Cy3 cluster intensity, sum of 5 cycles each) (fold (ratio)); higher = stronger signal-on switching upon ATP binding; sequences stand for … in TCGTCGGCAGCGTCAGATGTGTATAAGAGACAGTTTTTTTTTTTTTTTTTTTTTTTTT…TC; settings: aptamer strand: ATP DNA aptamer (quencher-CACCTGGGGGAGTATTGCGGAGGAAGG + anchor), 100 nM annealed; ATP concentration: 500 uM;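 note: ATP exposure 15 min at 22 °C before imaging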
This listing pairs sequences with measured switch fluorescence ratio.
Note: the reply should be a number with no unit written.

[[record]]
input_sequence = "TAGAATTGGT"
observed = 0.983

[[record]]
input_sequence = "TAGCTCTAGT"
observed = 1.02

[[record]]
input_sequence = "TTTCACTTTT"
observed = 0.991


Quote switch fluorescence ratio reported for `GGTAACGTTC` please.
0.989

Provide only the value of recorded switch fluorescence ratio for `ACTGGGGTCT`
1.01

Determine its reported switch fluorescence ratio: `AAATAGGGTA`
0.993

Identify switch fluorescence ratio associated with the sequence `TTGGGGTTAT`
0.975

Could you please provide reported switch fluorescence ratio for `TGGGAGGGAA` ? Thanks!
0.995

For the sequence `CGATACGTGG` , give its reported switch fluorescence ratio.
1.02

Supply recorded switch fluorescence ratio for `GTTTTTGATA` here.
0.998

###

Below is a list of entries, each paired with its recorded switch fluorescence ratio value.
test system: ATP; experiment: switch fluorescence ratio, 500 uM ATP over buffer (Cy3 cluster intensity, sum of 5 cycles each) (fold (ratio)); higher = stronger signal-on switching upon ATP binding; sequences stand for … in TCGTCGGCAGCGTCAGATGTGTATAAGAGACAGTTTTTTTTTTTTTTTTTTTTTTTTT…TC; details: aptamer strand: ATP DNA aptamer (quencher-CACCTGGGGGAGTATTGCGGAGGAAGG + anchor), 100 nM annealed; ATP concentration: 500 uM;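 note: ATP exposure 15 min at 22 °C before imaging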
Just the number, please, no unit attached.

[[record]]
input_sequence = "TTACCTGAAC"
observed = 2.02


Tell me switch fluorescence ratio reported for `GGGGGGGCAC`
1.01

###

Reported switch fluorescence ratio is given for each of the following sequences.
test system: ATP; assay: switch fluorescence ratio, 500 uM ATP over buffer (Cy3 cluster intensity, sum of 5 cycles each) (fold (ratio)); higher = stronger signal-on switching upon ATP binding; sequences stand for … in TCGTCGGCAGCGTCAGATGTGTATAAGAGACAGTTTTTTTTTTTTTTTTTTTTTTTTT…TC; settings: aptamer strand: ATP DNA aptamer (quencher-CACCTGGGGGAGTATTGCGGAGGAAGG + anchor), 100 nM annealed; ATP concentration: 500 uM;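 note: ATP exposure 15 min at 22 °C before imaging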
Number only, no unit.

Consider the reported switch fluorescence ratio for these sequences:
[[record]]
input_sequence = "TTTTGGTTGC"
assay_target = "ATP"
observed = 1.02

[[record]]
input_sequence = "ATTCTTATTG"
assay_target = "ATP"
observed = 0.98

[[record]]
input_sequence = "CGATCGGATT"
assay_target = "ATP"
observed = 1.01

[[record]]
input_sequence = "CCGGGTCTTT"
assay_target = "ATP"
observed = 1

[[record]]
input_sequence = "AGCGGTGGGA"
assay_target = "ATP"
observed = 1.02

[[record]]
input_sequence = "TAAAGACGGG"
assay_target = "ATP"
observed = 0.978


Retrieve switch fluorescence ratio measured for `TTATTAGGGT` and print it.
1

Supply switch fluorescence ratio value. Item: `GGGTTATGGT`
0.998

Annotate the sequence `GGGGTAGCCT` with its measured switch fluorescence ratio.
1

Item `GCGGCTGGTT` : provide switch fluorescence ratio
0.981

Consider the sequence `GACTTTTCTT` . State its measured switch fluorescence ratio.
0.971

###

Measured switch fluorescence ratio values are reported for all entries that follow.
test system: ATP; assay: switch fluorescence ratio, 500 uM ATP over buffer (Cy3 cluster intensity, sum of 5 cycles each) (fold (ratio)); higher = stronger signal-on switching upon ATP binding; sequences stand for … in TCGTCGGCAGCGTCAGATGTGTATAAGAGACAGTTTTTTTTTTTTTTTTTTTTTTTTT…TC; settings: aptamer strand: ATP DNA aptamer (quencher-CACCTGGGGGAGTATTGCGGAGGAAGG + anchor), 100 nM annealed; ATP concentration: 500 uM;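 note: ATP exposure 15 min at 22 °C before imaging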
Give a plain numeric answer without units written out.

[[record]]
input_sequence = "AAAAAGTCGG"
assay_target = "ATP"
observed = 1.04

[[record]]
input_sequence = "GGAGCGGTGG"
assay_target = "ATP"
observed = 0.955

[[record]]
input_sequence = "TTTTATAGCG"
assay_target = "ATP"
observed = 0.999


Quote switch fluorescence ratio with test system ATP for `CGTTTGGCCC`;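 note: ATP exposure 15 min at 22 °C before imaging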
0.988

For ATP, give switch fluorescence ratio of the listed sequence: `TCGACGGAGT`
1.11

Please indicate recorded switch fluorescence ratio of `TCATCAATAT` measured with ATP.
1.09

Provide measured switch fluorescence ratio on ATP for `AATATTGATG` please.
1.02

Identify measured switch fluorescence ratio obtained with ATP for `TTTTGAGAAT` .
1.02

###

system: ATP; experiment: switch fluorescence ratio, 500 uM ATP over buffer (Cy3 cluster intensity, sum of 5 cycles each) (fold (ratio)); higher = stronger signal-on switching upon ATP binding; sequences stand for … in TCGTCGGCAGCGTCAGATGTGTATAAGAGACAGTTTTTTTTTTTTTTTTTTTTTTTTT…TC; conditions: aptamer strand: ATP DNA aptamer (quencher-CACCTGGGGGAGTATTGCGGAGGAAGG + anchor), 100 nM annealed; ATP concentration: 500 uM;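 note: ATP exposure 15 min at 22 °C before imaging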
assay_endpoint: switch fluorescence ratio
Please reply with the value in numeric form only.

Here is how some sequences turned out for switch fluorescence ratio.
[[record]]
input_sequence = "AGGGCGGGGA"
observed = 1.01

[[record]]
input_sequence = "CATTATGGAG"
observed = 1

[[record]]
input_sequence = "TTTCTCGTCT"
observed = 0.988

[[record]]
input_sequence = "GTAGAAGGGG"
observed = 1

[[record]]
input_sequence = "TGATATTTTT"
observed = 0.998


Give reported switch fluorescence ratio value for `TTTTAGAGTG`
1

Indicate its recorded switch fluorescence ratio; the sequence in question is `ATGCGAAGG`
0.98

// fetch switch fluorescence ratio given entry `GACTTTTTGG`
0.998

Quickly give me recorded switch fluorescence ratio for `GACATCAGAG`
1.02

Determine its reported switch fluorescence ratio: `AACGCCGAGT`
0.982

Retrieve switch fluorescence ratio measured for `GGGTTGGAAT` and print it.
0.988

Dear colleague, please send me the reported switch fluorescence ratio for `TTTCATTGGC` when you can.
0.986

###

# Lookup of reported switch fluorescence ratio keyed by entry
test system: ATP; assay: switch fluorescence ratio, 500 uM ATP over buffer (Cy3 cluster intensity, sum of 5 cycles each) (fold (ratio)); higher = stronger signal-on switching upon ATP binding; sequences stand for … in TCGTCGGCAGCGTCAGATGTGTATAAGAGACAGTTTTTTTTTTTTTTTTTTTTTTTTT…TC; settings: aptamer strand: ATP DNA aptamer (quencher-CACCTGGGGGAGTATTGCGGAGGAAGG + anchor), 100 nM annealed; ATP concentration: 500 uM;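 note: ATP exposure 15 min at 22 °C before imaging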
Form rule: numeric answer, no unit written next to it.

[[record]]
input_sequence = "TCGGAGATAT"
observed = 1

[[record]]
input_sequence = "GGAATACGAT"
observed = 1.09

[[record]]
input_sequence = "GGGGCTATAT"
observed = 1.39

[[record]]
input_sequence = "CGTATTATTA"
observed = 0.988

[[record]]
input_sequence = "TACACGCGGG"
observed = 1.01

[[record]]
input_sequence = "CATTGCAAAC"
observed = 5.13

[[record]]
input_sequence = "TACGAGTGCG"
observed = 1.04

[[record]]
input_sequence = "TTGTTTACCG"
observed = 0.956

[[record]]
input_sequence = "TTGTCACGG"
observed = 0.986

[[record]]
input_sequence = "TATTGCTTT"
observed = 0.977


// fetch switch fluorescence ratio given entry `TATTACGGGG`
1.01

Tell me switch fluorescence ratio reported for `TCCCTGGACT`
1.02
